Origin of the recorded values: ChEMBL document CHEMBL3244231

system: Canis familiaris; assay: Antihypertensive activity in anesthetized normotensive mongrel dog assessed as maximum decrease in blood pressure at 0.4 mg/kg, iv administered at 30 mins intervals; assay type: functional, Canis lupus familiaris
Overview of reported Activity across a group of compounds:
Respond numerically; units are mmHg and should not be typed.

Some compounds with recorded Activity:
COc1cc2nc(N3CCN(C(=O)c4ccco4)CC3)nc(N)c2cc1OC.Cl [PRAZOSIN HYDROCHLORIDE]    45
COc1cc2nc(N3CCN(C(=O)c4ccco4)CC3)nc(N)c2cc1O.O=S(=O)(O)O    10
COc1cc2c(N)nc(N3CCN(C(=O)c4ccco4)CC3)nc2cc1O.O=S(=O)(O)O    12

We next turn to a different compound, shown below.
stdin: I am curious: what Activity value has been reported for COc1cc2nc(N)nc(N)c2cc1OC ?
stdout: 3
